test: reduction of Shn3 3'UTR firefly luciferase signal, primary screen, Schnurri-3 inhibitor project, cell-based, Clone20 osteoblasts, set 2 (AID 588674); conditions: Clone20 osteoblast Shn3 3'UTR firefly luciferase, 24 h; at 12.5 µM;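 also: 0% = median of neutral control wells and 100% = pilot-screen positive control compound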
Among all 360,000 compounds or so, about 1,800 (0.5%) were called active.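 The calls were made as follows: active = mean inhibition of at least 75% with every replicate also reaching 75%; inconclusive = mean inhibition at least 75% but some replicate below; inactive = mean inhibition below 75%.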 This is one part of a sample in which actives are shown more often than they occur.
Log the outcome using a class from active, inactive

A selection of reference data follows.
[[record]]
compound = "COc1ccc(C(O)c2nc(-c3ccc4c(c3)OCO4)cs2)cc1 (stereo not drawn)"
category = "inactive"

[[record]]
compound = "COc1ccccc1NC(=S)N1CCN(C(c2ccccc2)c2ccccc2)CC1"
category = "inactive"


Prompt: Hi team, can someone confirm the assay call for COc1ccc(OC)c(Nc2nc(-c3ccc(O)c(O)c3)cs2)c1 ?
Response: active

----------
assay: reduction of Shn3 3'UTR firefly luciferase signal, primary screen, Schnurri-3 inhibitor project, cell-based, Clone20 osteoblasts, set 2 (AID 588674); conditions: Clone20 osteoblast Shn3 3'UTR firefly luciferase, 24 h; at 12.5 µM; hits give high values
About 1,800 (0.5%) of roughly 360,000 compounds were called active. The list comes from a sample in which actives are over-represented; it also holds close analogues and randomly drawn compounds.
Criterion: inhibition meeting or surpassing 10%. Met: 1. Not met: -1.

[[record]]
compound = "COc1ccc(C(=O)NCc2ccc(Cl)cc2)cc1S(=O)(=O)N1CCCC1"
category = -1

[[record]]
compound = "COC(=O)C1CCN(C(=O)NC2CC(=O)N(c3ccc4c(c3)OCCO4)C2)CC1 (stereo unspecified)"
category = -1


Prompt: Decide: inhibition of C/C(=N\NC(=O)C1(C)CC1(Br)Br)c1ccc(C)cc1C (stereo unspecified) >= 10%?
Response: -1

Prompt: Same read-out for CC(=O)Nc1cc(-c2cccc(CO)c2)cn2c(-c3cccc(C(F)(F)F)c3)cnc12 ?
Response: 1

Prompt: And then Cc1ccccc1C(=O)N1CCN(c2ccc(NC(=O)c3cccs3)cc2)CC1 , what is it?
Response: 1

Prompt: For CCOC(=O)c1c(C)[nH]c(C)c1S(=O)(=O)NCCCc1ccco1 then?
Response: -1

Prompt: Repeat for the following compound: CC(=O)Nc1cccc(C(=O)OCC(=O)NCc2cc(C)c(O)c(C)c2)c1
Response: -1

Prompt: Please answer likewise for Cc1ccc(C)c(N2CCN(C(=O)CCCCCn3c(=S)[nH]c4ccc(N5CCOCC5)cc4c3=O)CC2)c1
Response: 1

Prompt: Would you mind doing COc1ccc2c(c1OC)C(=O)OC2Nc1nc(-c2ccccc2)cs1 (stereo unspecified) as well?
Response: 1

Prompt: Entry COc1ccc(Cc2nnc(N/N=C/c3ccccc3O)[nH]c2=O)cc1OC please
Response: 1

----------
assay: reduction of Shn3 3'UTR firefly luciferase signal, primary screen, Schnurri-3 inhibitor project, cell-based, Clone20 osteoblasts, set 2 (AID 588674); conditions: Clone20 osteoblast Shn3 3'UTR firefly luciferase, 24 h; at 12.5 µM; hits give high values
Hit rate of the full screen: of about 360,000 compounds, about 1,800 (0.5%) were called active. Shown is part of a subset that was picked to be rich in actives.
# if value of inhibition reaches 40%, tag Met; if it stays below, tag Not met

Prompt: Does the compound COc1ccc(CCNc2cc(N3CCN(C(=O)c4ccccc4OC)CC3)ccc2[N+](=O)[O-])cc1OC have recorded inhibition that is 40% or more?
Response: Met

----------
test: reduction of Shn3 3'UTR firefly luciferase signal, primary screen, Schnurri-3 inhibitor project, cell-based, Clone20 osteoblasts, set 2 (AID 588674); settings: Clone20 osteoblast Shn3 3'UTR firefly luciferase, 24 h; at 12.5 µM
In all, about 360,000 compounds went through this assay and about 1,800 (0.5%) were called active.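 How the source made its calls: active means mean inhibition of at least 75% with every replicate also reaching 75%; inconclusive means mean inhibition at least 75% but some replicate below; inactive means mean inhibition below 75%.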 The sample as a whole holds a higher share of actives than the screen did.
A correct response names exactly one class from active, inactive

These solved cases illustrate the format of a correct answer.
[[record]]
molecule = "COc1cc(C(O)c2nc(-c3cccc(C(=O)O)c3)cs2)ccc1F (stereo unspecified)"
category = "inactive"

[[record]]
molecule = "N#C/C(C(=S)Nc1ccccc1)=C1/NN=C(N2CCOCC2)N1c1ccccc1"
category = "inactive"

[[record]]
molecule = "COc1ccc(C(=O)OCc2cc(=O)n3ccsc3n2)cc1F"
category = "inactive"


Prompt: For CC(=O)c1ccccc1NC(=O)CC1(CC(=O)O)CCCCC1 , what call appears in the results of this test?
Response: inactive

Prompt: Another: O=C(CN1C(=O)NC2(CCOc3ccccc32)C1=O)NCc1ccc(F)cc1 (stereo unspecified)
Response: inactive

----------
test: reduction of Shn3 3'UTR firefly luciferase signal, primary screen, Schnurri-3 inhibitor project, cell-based, Clone20 osteoblasts, set 2 (AID 588674); settings: Clone20 osteoblast Shn3 3'UTR firefly luciferase, 24 h; at 12.5 µM; hits give high values;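 also: 0% = median of neutral control wells and 100% = pilot-screen positive control compound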
The campaign covered roughly 360,000 compounds. About 1,800 (0.5%) were called active. For the sample, actives were picked, then their nearest neighbours and some compounds at random.
recordedMetric: inhibition (%)
Write it as a number; the unit % goes unstated.

Past entries and their recorded results:
[[record]]
compound = "CCOC(=O)C1=CC[C@@H](c2ccncc2)N(S(=O)(=O)c2ccc(C)cc2)C1"
resultnumber = 4.63

[[record]]
compound = "NC(c1ccccc1)c1csc(NC(=O)Nc2cccc(C(F)(F)F)c2)n1 (configuration not stated)"
resultnumber = 23

[[record]]
compound = "COc1ccc(CC(N)c2csc(NC(=O)Nc3ccc(C(C)C)cc3)n2)cc1 (configuration not stated)"
resultnumber = 96.6

[[record]]
compound = "O=C(NCc1cccs1)c1ccc2c(c1)ncn2C1CCCC1"
resultnumber = -25.6

[[record]]
compound = "CCc1ccc(NC2Nc3cc(C)nn3S2)cc1 (configuration not stated)"
resultnumber = -59


Prompt: Give its inhibition value. Item: CC(=O)Nc1ccc(NC(=O)C(C)OC(=O)C2CC(=O)N(CCc3ccccc3)C2)cc1 (configuration not stated)
Response: -14.3

Prompt: Same thing, different compound: COc1ccc(NC(=O)CCCOc2ccc(C(C)=O)cc2)cc1S(=O)(=O)N1CCCCC1
Response: 42.4

Prompt: Thanks! And COc1ccccc1OCCNc1cc(N2CCOCC2)ccc1[N+](=O)[O-] ?
Response: 40.1

Prompt: Query Cc1ccc(CS(=O)(=O)c2ncc(Cl)c(C(=O)Nc3nnc(C)s3)n2)cc1 next
Response: 98.8

Prompt: Repeat for the following compound: C=C1C(=O)[C@]23C[C@H]1CCC2[C@@]1(C)C(C[C@@H]3O)[C@](C)(C(=O)O)CC[C@@H]1O (some centres not stated)
Response: 29.4

Prompt: Likewise for O=C(COc1ccc(-n2cnnn2)cc1)Nc1ccccc1Cl ?
Response: 1.66

Prompt: Now consider O=c1c2ccccc2nc2n1C(CSCc1cccc(C(F)(F)F)c1)CS2 (configuration not stated) .
Response: 92.5

----------
assay: reduction of Shn3 3'UTR firefly luciferase signal, primary screen, Schnurri-3 inhibitor project, cell-based, Clone20 osteoblasts, set 2 (AID 588674); conditions: Clone20 osteoblast Shn3 3'UTR firefly luciferase, 24 h; at 12.5 µM; hits give high values;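 also: 0% = median of neutral control wells and 100% = pilot-screen positive control compound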
Out of some 360,000 compounds screened, about 1,800 (0.5%) were called active. Only a selection was taken, and actives are over-represented in it overall.
Examples of molecules with documented inhibition follow.
Number only, in %; omit the unit.

// known answers, use as guide
[[record]]
molecule = "C[C@H]([C@@H](O)[C@@H](O)[C@@H](C)C(C)(C)C)[C@H]1CC[C@H]2C3CC[C@H]4C[C@H](OS(=O)(=O)O)[C@@H](OS(=O)(=O)O)C[C@]4(C)[C@H]3CC[C@]12C (stereo partly specified)"
resultnumber = -9.66

[[record]]
molecule = "O=C(CSc1ncnc2c1nnn2Cc1ccc(F)cc1)NC1CCCC1"
resultnumber = -2.06

[[record]]
molecule = "O=C(CSc1cccc2cccnc12)N/N=C/c1cccnc1"
resultnumber = 20.8

[[record]]
molecule = "Cc1cc(C)n(CCC(=O)N2CCN(S(=O)(=O)c3ccc(C)c(C)c3)CC2)n1"
resultnumber = -21.5

[[record]]
molecule = "Cc1ccc(-n2c(=O)c(C#N)cc3c(=O)n4ccccc4nc32)cc1C"
resultnumber = 6.55


Prompt: Need inhibition, item Cc1cccc(-n2ncc(Cl)c(Cl)c2=O)c1
Response: 94.3

Prompt: Same for Cc1ccc(C(=O)CN2C(=O)NC3(CCOc4ccccc43)C2=O)s1 (stereo unspecified)
Response: -11.6

Prompt: Cc1ccc(/C=N/NC(=O)C2=NNC(c3ccccc3)(c3ccccc3)C2)c(O)c1 , same question.
Response: 88.2

----------
assay: reduction of Shn3 3'UTR firefly luciferase signal, primary screen, Schnurri-3 inhibitor project, cell-based, Clone20 osteoblasts, set 2 (AID 588674); settings: Clone20 osteoblast Shn3 3'UTR firefly luciferase, 24 h; at 12.5 µM;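 also: 0% = median of neutral control wells and 100% = pilot-screen positive control compound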
Hit rate of the full screen: of about 360,000 compounds, about 1,800 (0.5%) were called active.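 The calls were made as follows: active = mean inhibition of at least 75% with every replicate also reaching 75%; inconclusive = mean inhibition at least 75% but some replicate below; inactive = mean inhibition below 75%.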 The list comes from a sample in which actives are over-represented; it also holds close analogues and randomly drawn compounds.
Respond with a class label; see 1 for active, -1 for inactive

Prompt: I would be grateful if you could indicate the recorded call for CNc1nc(SC)nc(N(C#N)CC(=O)OC)n1 .
Response: -1

Prompt: Same read-out for COc1cccc(CNC(=O)C(=O)NCCC2CCCCN2S(=O)(=O)c2ccc(C)cc2)c1 (stereo not drawn) ?
Response: -1
